tested on: LXRa homodimer (NR concentration 270 nM); assay: PBM binding z-score (relative to random genomic background probes); higher = stronger binding; sequences stand for … in GC…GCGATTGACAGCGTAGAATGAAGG
Decision: PBM binding z-score >= -0.4 yields Met, all other cases yield Not met.

1. CAGCGTAGGTCAGGGCCAGTATAGGAGGAACGTT : Met
2. AAATGTAGGTTATCGGGTCATTCAGTTTGCGCAT : Met
3. AATACAGGGTCACAAGGCCAGAGTAGGTACGAAT : Met
4. CCTAGTAGGTCAGGAGGTCACACACCGGATATGA : Met
5. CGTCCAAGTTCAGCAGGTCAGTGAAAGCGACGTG : Met
6. CCGACTTGGGCAGAAAGGTTACCATACCATCCGG : Met
7. TCTTCTAGGTCAGTTGGTCAGCTAACGAGCTGCC : Met
8. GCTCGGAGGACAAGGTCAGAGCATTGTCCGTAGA : Not met
9. TAGCCTACGTCAGATCGGGCCAGTATACGCTATA : Not met
10. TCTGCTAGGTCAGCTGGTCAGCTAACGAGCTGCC : Not met
11. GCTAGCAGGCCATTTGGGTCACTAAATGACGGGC : Not met

###

test system: LXRa homodimer (NR concentration 270 nM); test: PBM binding z-score (relative to random genomic background probes); higher = stronger binding; sequences stand for … in GC…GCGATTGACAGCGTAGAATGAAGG
measured_property: PBM binding z-score

1) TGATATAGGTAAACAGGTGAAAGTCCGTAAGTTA : 0.0822
2) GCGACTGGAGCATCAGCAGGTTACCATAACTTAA : -0.742
3) TCGAGTAGGTTAGGGGCCTTCAGAATGGCGTCGA : -0.797
4) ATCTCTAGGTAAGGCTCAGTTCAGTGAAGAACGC : 0.412
5) TCTTGTAGATCTACAGGAGGTTAAGAAAGATCGA : 0.0906
6) CCTGCAAGGTCAATGGTCAGCTAAAGCAGCTCGC : 0.264

###

system: RARa:RXR (NR concentration 270 nM, RXRa partner concentration 90 nM); test: PBM binding z-score (relative to random genomic background probes); higher = stronger binding; sequences stand for … in GC…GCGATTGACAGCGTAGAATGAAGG
measured_property: PBM binding z-score

1. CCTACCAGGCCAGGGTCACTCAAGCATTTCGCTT : 2.79
2. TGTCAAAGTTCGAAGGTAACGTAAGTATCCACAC : 2.13
3. ACTATTTGTTGACTTAGGGCAACCGATACGACGC : 0.364
4. TCTGCTAGGTCAACGAGGGTCAGCTAATCTGCTA : 4.03
5. CCTAGCAGGCCAGGGTCACTTAAGCATTTCGCTT : 2.71
6. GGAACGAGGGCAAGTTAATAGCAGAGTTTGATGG : 0.427
7. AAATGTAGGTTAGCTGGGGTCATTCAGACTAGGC : 6.04
8. ACAGACAGGTGACGAAGGTAACTCAGGCTATCAT : 0.144
9. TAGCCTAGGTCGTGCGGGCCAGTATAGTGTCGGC : -0.166
10. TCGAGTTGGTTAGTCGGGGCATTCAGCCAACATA : 0.142
11. GCTAGTTGATCAGTAAAAGGTCACACACCGGTCG : 5.64
12. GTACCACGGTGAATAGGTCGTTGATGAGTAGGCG : 0.233

###

system: PPARg:RXRa 90nM:30nM, anti-RXR (NR concentration 90 nM, RXRa partner concentration 30 nM); assay: PBM binding z-score (relative to random genomic background probes); higher = stronger binding; sequences stand for … in GC…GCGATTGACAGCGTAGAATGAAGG
// map PBM binding z-score to label using band 1 (below 2), band 2 (2 to below 3), band 3 (3 or more)

1. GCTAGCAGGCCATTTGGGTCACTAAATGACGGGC : band 1
2. TTACCAAGGTGAAAGGTTGTTGATGCACGCCTTG : band 3
3. TCTCGGAGGACACGAAGGTCAGAGGTTTCCAGAG : band 2
4. GCTAGTCGGTCAGTAAAAGGTCACACACCGGTCG : band 3
5. TCTAGCAGGCCAGAGGGTCACTCAAGAGGTACGG : band 2
6. ACTATTAGTTGAGACGAGGGCATCCGATAGGTTG : band 1
7. AGAATGAGGTTAAGATCCGGGAAACAGAATACAT : band 1
8. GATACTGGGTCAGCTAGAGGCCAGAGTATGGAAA : band 2
9. AGAACGAGGGCACGCTGCGTTGATAGCAGAGTAG : band 1
10. AGAATGAGGTTACCTAAGATCAGGGAAACGCTTG : band 1

###

test system: PPARg:RXRa DBDmut IVT, anti-RXR (DBD mutation: RXRa K156A/R161A, NR concentration 270 nM, RXRa partner concentration 90 nM); test: PBM binding z-score (relative to random genomic background probes); higher = stronger binding; sequences stand for … in GC…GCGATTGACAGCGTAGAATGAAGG
measured_property: PBM binding z-score

1) ACTATTAGTTGAGACGAGGGCAAACGATAGGTTG : 0.0525
2) AGAACGAGTGCAATGAGTTGATAGCACGGGTGGC : -0.425
3) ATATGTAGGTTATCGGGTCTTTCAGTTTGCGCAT : 7.73
4) CGAACTAGGTCAGAACAGGACAGAGAAGGATGAT : 7.13
5) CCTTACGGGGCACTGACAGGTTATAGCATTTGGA : 1.49
6) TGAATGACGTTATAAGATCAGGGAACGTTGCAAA : -1.22
7) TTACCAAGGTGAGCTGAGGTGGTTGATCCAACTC : 0.594
8) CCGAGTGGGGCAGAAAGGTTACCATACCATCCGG : 1.16
9) TCGAGTAGGTTTGTCGGGGCATTCAGCCAACATA : 0.713
10) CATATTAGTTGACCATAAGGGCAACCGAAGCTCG : 0.59
11) GCGACTGGGGCGAAGCAGGTTACCATAAGGTTGG : 0.93
12) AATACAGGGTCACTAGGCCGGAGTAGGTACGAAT : 3.1

###

tested on: PPARg:RXRa 90nM:30nM, anti-RXR (NR concentration 90 nM, RXRa partner concentration 30 nM); test: PBM binding z-score (relative to random genomic background probes); higher = stronger binding; sequences stand for … in GC…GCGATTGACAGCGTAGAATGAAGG
Decision: PBM binding z-score >= 1 yields class 1, all other cases yield class 0.

1. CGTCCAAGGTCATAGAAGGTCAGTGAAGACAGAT : class 1
2. TTACCAAGGTGAAGGGTCGTTGATGCACGCCTTG : class 1
3. ATCGAAAGGTCGAAGGTTAGTATACCCACCCGAA : class 1
4. GTACCAAGGTGAATAGGTCGTGGATGAGTAGGCG : class 1
5. CCTAGCAGGCCAATCTGGGTCACTTAAGGCTTGA : class 1
6. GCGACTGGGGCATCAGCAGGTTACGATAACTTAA : class 0
7. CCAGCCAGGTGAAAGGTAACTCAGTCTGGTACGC : class 1
8. CCTACTGGGCCATCAGGTCATTGACATCAACGTT : class 1
9. CCAGACAGGTGAGAAGGTAACTCACCCTCGATTA : class 0
10. AGATTGAGGTTAAGATCAGGGAAACAGAATACAT : class 1
11. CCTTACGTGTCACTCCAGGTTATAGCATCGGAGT : class 0
12. GCTGCTAGGTCTGGTTGGTCAGCTAACGGGTACG : class 0
13. ATCGAAAGATCGACGAGGTGAGTATACACCGTTT : class 0
14. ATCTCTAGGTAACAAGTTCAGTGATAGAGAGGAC : class 1
15. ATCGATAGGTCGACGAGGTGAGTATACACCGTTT : class 0
16. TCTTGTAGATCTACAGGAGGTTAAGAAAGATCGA : class 1
17. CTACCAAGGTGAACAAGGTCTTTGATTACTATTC : class 0
18. TCATATAGATAAAAGGTGAAAGTCGGTGTGGTAA : class 1
19. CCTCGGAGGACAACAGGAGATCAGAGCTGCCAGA : class 0
20. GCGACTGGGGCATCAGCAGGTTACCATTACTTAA : class 0
21. ACTATTAGTTGACTTAGGGCATCCGATACGACGC : class 0
22. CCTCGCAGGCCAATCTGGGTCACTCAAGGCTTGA : class 1
23. TCTTGGAGGACACGAAGGTCAGAGCTTTCCAGAG : class 1
24. GGAACGAGGGCAAAGATGATAGCATCTGTCGACG : class 1
25. TCATATAGGTAATAGAGGTGAAAGTCGGCATCTA : class 1
26. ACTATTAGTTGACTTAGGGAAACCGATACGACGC : class 0
